- Target desc: MSUT2 (Homo sapiens (Human), UniProt Q6PJT7)
- Sequence (Q6PJT7 whole entry, species assumed): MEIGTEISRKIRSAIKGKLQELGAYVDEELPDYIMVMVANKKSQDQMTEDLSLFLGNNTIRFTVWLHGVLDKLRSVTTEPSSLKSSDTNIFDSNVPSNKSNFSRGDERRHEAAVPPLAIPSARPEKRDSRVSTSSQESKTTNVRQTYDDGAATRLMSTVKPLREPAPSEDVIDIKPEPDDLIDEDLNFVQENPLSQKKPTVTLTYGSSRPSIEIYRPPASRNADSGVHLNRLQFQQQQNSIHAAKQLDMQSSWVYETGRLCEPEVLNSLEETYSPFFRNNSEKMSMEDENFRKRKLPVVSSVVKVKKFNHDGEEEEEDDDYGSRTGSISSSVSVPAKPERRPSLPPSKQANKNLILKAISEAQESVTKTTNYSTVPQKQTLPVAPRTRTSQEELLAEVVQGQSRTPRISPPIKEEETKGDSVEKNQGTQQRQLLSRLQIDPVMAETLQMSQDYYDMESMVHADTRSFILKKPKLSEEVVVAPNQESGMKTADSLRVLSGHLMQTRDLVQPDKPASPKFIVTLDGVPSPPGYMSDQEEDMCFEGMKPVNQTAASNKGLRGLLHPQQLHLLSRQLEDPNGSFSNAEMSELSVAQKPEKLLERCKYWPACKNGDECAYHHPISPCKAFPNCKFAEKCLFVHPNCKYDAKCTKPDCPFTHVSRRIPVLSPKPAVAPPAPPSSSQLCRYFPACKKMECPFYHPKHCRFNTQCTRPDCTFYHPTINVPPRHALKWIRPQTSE
- Experiment description: primary tau-inclusion neuronal assay (MSUT2 inhibitor activity)
- Experimental setup: dose-dependent activity, primary tau-inclusion neuronal assay
Output: class label from IC50. Mapping: b0 = under 10 µM, b1 = from 10 µM up to 20 µM, b2 = 20 µM and over

Compound	Label
Nc1nc2c(s1)CS(=O)(=O)c1ccccc1-2 [BL-1075]	b2
CCS(=O)(=O)c1ccc(CNc2nc3c(s2)CSc2ccccc2-3)cc1 [BL-1126]	b1
Nc1nc2c(s1)CSCC2 [BL-1018]	b2
Nc1nc2c(s1)CSc1ccccc1-2 [BL-0957]	b0
COC(=O)CC[C@H](NC(=O)OC(C)(C)C)C(=O)Nc1nc2c(s1)CSc1ccccc1-2 [BL-1081]	b1
CCS(=O)(=O)c1ccc(C(=O)Nc2nc(-c3ccccc3)cs2)cc1 [BL-1057]	b2

In plain terms, what class is Nc1nc2c(s1)COc1ccccc1-2 [BL-0959] ?
b0

Determine which band this compound sits in: C#Cc1ccc(CNc2nc3c(s2)CSc2ccccc2-3)cc1 [BL-1092]
b1

Where would O=C(NCCS(=O)(=O)O)Nc1nc2c(s1)CSc1ccccc1-2 [BL-1122] land among the classes by reported IC50?
b0

Kindly identify the class of Nc1nc2c(s1)CSc1c(F)cccc1-2 [BL-0979] .
b2

Assign a category based on measured IC50 for CCS(=O)(=O)c1ccc(C(=O)Nc2nc3c(s2)CCc2ccccc2-3)cc1 [BL-0963] and give only the class name.
b2

Please report the category associated with c1ccc(CNc2nc3c(s2)CSc2ccccc2-3)cc1 [BL-1133] , nothing else.
b0

Would you mind sorting NCC(=O)Nc1nc2c(s1)CSc1ccccc1-2 [BL-1046] into the appropriate category?
b2

Tag the class for Fc1ccc(CNc2nc3c(s2)CSc2ccccc2-3)cc1 [BL-1023]
b1

###

Quick reference for pIC50 among some compounds
- Target desc: MSUT2 (Homo sapiens (Human))
- Experiment description: primary tau-inclusion neuronal assay (MSUT2 inhibitor activity)
- Experimental setup: dose-dependent activity, primary tau-inclusion neuronal assay
Just so you know, pIC50 here is -log10 of the concentration in molar units; reply with that number alone.

Compound	pIC50
O=S(=O)(Nc1nc2c(s1)COc1ccccc1-2)c1ccccc1	4.47
CC(C)Cc1ccc(CNc2nc3c(s2)CSc2ccccc2-3)cc1	4.69
Fc1ccc(CNc2nc3c(s2)COc2ccccc2-3)cc1	4.68
Nc1nc2c(s1)CSc1c(F)cc(F)cc1-2	4.22
CCS(=O)(=O)c1ccc(C(=O)Nc2nc3c(s2)CSCC3)cc1	3.96

Identify measured pIC50 associated with "C#CCNC(=O)Nc1nc2c(s1)CSc1ccccc1-2"
4.63

Determine from records and report pIC50 for "Cc1ccc(CNc2nc3c(s2)CSc2ccccc2-3)s1"
5.11

Read off the recorded pIC50 for "CC1(C)Sc2ccccc2-c2nc(N)sc21"
4.29

###

- Target desc: MSUT2 (Homo sapiens (Human), UniProt Q6PJT7)
- Experiment description: primary tau-inclusion neuronal assay (MSUT2 inhibitor activity)
- Experimental setup: dose-dependent activity, primary tau-inclusion neuronal assay
Measured pIC50 accompanies every entry in the list below.
# reply with the number alone; pIC50 is -log10 of concentration in mol/L

Take a look at these entries with their results.
Fc1ccc(CNc2nc3c(s2)CCc2ccccc2-3)cc1 4.66
Nc1nc2c(s1)CSc1cc(F)ccc1-2 4.65
CC(C)(C)OC(=O)NCC(=O)Nc1nc2c(s1)CSc1ccccc1-2 4.35
O=C(Nc1ccccc1)Nc1nc2c(s1)CSc1ccccc1-2 4.49
Nc1nc2c(s1)CSc1ncccc1-2 4.96

Name the recorded pIC50 of the item "Nc1nc2c(s1)Cc1ccccc1-2" in your answer.
4.31

// Input: "CCN(CC)c1ccc(CNc2nc3c(s2)CSc2ccccc2-3)cc1" . Output its pIC50 only.
5.25
